B1: PDZK1 (parent)
chain: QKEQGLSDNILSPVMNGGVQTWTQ

- Variants of: B1
- Assay Text: protein stability index of a GFP-peptide fusion (GPS, HEK-293T) (PSI 1-6); higher = more stable;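 note: lentivirally expressed fusions sorted by FACS into six bins by GFP to DsRed ratio, PSI derived from sequencing read proportions per bin multiplied by bin number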
- Condition Label: c terminus: a fixed tail appended
Param threshold (3) applies to protein stability index; output Criterion met when value >= threshold, Criterion not met when value < threshold.

Illustrative cases are given below, each with its answer.
W22S = Criterion met
Q1V = Criterion not met
E3Q = Criterion not met
T23N = Criterion met
Q24M = Criterion not met

Can G18V be said to have protein stability index at or above 3?
Criterion not met

Thanks! And V14K ?
Criterion not met

What about S12P ?
Criterion met

Check G5Y too.
Criterion not met

// next record G5D
Criterion not met

Would you kindly repeat that for V19N ?
Criterion not met
